B1: PDS5B (parent)
chain: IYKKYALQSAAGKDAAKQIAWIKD

variants of: B1; experiment: protein stability index of a GFP-peptide fusion (GPS, HEK-293T) (PSI 1-6); higher = more stable; conditions: c terminus: a fixed tail appended;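 note: lentivirally expressed fusions sorted by FACS into six bins by GFP to DsRed ratio, PSI derived from sequencing read proportions per bin multiplied by bin number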
Mark YES for reported protein stability index of 3 or greater; mark NO for anything smaller.

Worked examples follow.
- sequence entry: "IYKKYALQSAAGKDAAKQIAWIKH [D24H]"
  label class: "NO"
- sequence entry: "IYKKYALQSAMGKDAAKQIAWIKD [A11M]"
  label class: "NO"
- sequence entry: "IYKKYALQDAAGKDAAKQIAWIKD [S9D]"
  label class: "YES"

Hi team, for TYKKYALQSAAGKDAAKQIAWIKD [I1T] , is the recorded protein stability index at or above 3? YES

Does the reported protein stability index for IYKKYALQSAAGKDAAKQIAWVKD [I22V] fall at or above the 3 mark? YES

Please indicate if the recorded protein stability index for IYKKYALQSAAGKDAAMQIAWIKD [K17M] meets or exceeds 3. NO

Form field: protein stability index at least 3? Entry: IYKKYALQSIAGKDAAKQIAWIKD [A10I] NO

protein stability index >= 3 for IYKNYALQSAAGKDAAKQIAWIKD [K4N] ? NO

Dear colleague, could you confirm whether IYKKYALQSAAGKDAAKQIGWIKD [A20G] has protein stability index at or above 3? NO

Test whether the variant IYKKYANQSAAGKDAAKQIAWIKD [L7N] records protein stability index of 3 or higher. NO

Exam item: decide whether the reported protein stability index for IYKKYALQSAAGKDAAKQIAWMKD [I22M] is at least 3. NO

The measurements presented in this section are drawn from the supplement of paper PMC10567573.
